System: AURKA;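 further: KINOMEscan kinase panel screen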
condition details: concentration: 1 μM, replicates: in singlicate; n = 1
measured quantity: %Inh (%)
Give bare numbers, in %.

These solved cases illustrate the format of a correct answer.
| compound | %Inh / % |
| --- | --- |
| Cc1ccc(C)c(NC(=O)Nc2ccc(C)c(-c3ccc(C(=O)Nc4ccncc4)cc3)c2)c1 | 0 |
| Nc1ncc(-c2cn[nH]c2)c2scc(-c3ccc4c(c3)CCN4C(=O)Cc3ccccc3)c12 | 13 |
| Cc1ccc(O)cc1Nc1ccnc2cc(-c3ccc(CN4CCCCC4)o3)ccc12 | 0 |
| O=C(Nc1n[nH]c2cc(-c3cccs3)ccc12)C1CC1 | 42 |
| Cc1ccc(NC(=O)c2cccc(N3CCCCC3)c2)cc1-c1ccc(C(=O)NCC2CC2)cc1 | 0 |
| CCOc1nccc(-c2c(-c3ccc(F)cc3)ncn2C2CCNCC2)n1 | 52 |
| Fc1cc(Cl)ccc1Nc1ccnc2cc(-c3ccc(CN4CCSCC4)o3)ccc12 | 100 |
| CCNC(=O)/C=C/c1n[nH]c2cc(Sc3ccccc3C(=O)NC)ccc12 | 86 |

// for each compound in input: emit %Inh
1. CCn1c(-c2nonc2N)nc2c(-c3ccccc3)ncc(OCCCN)c21.O=C(O)C(F)(F)F.O=C(O)C(F)(F)F
2. CC(=O)Nc1cn2nc(Oc3cccc(NC(=O)c4cccc(C(F)(F)F)c4)c3)ccc2n1
3. CC(C)NCC(Cc1ccccc1)NC(=O)c1cc(Br)c(-c2ccnc3[nH]ccc23)s1.Cl.Cl (centres unmarked)

1: 0; 2: 0; 3: 95.1
